Each recorded value in this set is attributed to patent US20250171431A1.

subject-of-test: IGF-1R (Homo sapiens (Human), UniProt P08069)
assay-details: Example B-2: IGF-1R Assay (PathHunter cell lines, EC80 agonist challenge)
Assay type: cell-based
measurement-conditions: read-out: IC50 (Biological Activity against IGF-1R)
Sequence (P08069 31-1367, species assumed): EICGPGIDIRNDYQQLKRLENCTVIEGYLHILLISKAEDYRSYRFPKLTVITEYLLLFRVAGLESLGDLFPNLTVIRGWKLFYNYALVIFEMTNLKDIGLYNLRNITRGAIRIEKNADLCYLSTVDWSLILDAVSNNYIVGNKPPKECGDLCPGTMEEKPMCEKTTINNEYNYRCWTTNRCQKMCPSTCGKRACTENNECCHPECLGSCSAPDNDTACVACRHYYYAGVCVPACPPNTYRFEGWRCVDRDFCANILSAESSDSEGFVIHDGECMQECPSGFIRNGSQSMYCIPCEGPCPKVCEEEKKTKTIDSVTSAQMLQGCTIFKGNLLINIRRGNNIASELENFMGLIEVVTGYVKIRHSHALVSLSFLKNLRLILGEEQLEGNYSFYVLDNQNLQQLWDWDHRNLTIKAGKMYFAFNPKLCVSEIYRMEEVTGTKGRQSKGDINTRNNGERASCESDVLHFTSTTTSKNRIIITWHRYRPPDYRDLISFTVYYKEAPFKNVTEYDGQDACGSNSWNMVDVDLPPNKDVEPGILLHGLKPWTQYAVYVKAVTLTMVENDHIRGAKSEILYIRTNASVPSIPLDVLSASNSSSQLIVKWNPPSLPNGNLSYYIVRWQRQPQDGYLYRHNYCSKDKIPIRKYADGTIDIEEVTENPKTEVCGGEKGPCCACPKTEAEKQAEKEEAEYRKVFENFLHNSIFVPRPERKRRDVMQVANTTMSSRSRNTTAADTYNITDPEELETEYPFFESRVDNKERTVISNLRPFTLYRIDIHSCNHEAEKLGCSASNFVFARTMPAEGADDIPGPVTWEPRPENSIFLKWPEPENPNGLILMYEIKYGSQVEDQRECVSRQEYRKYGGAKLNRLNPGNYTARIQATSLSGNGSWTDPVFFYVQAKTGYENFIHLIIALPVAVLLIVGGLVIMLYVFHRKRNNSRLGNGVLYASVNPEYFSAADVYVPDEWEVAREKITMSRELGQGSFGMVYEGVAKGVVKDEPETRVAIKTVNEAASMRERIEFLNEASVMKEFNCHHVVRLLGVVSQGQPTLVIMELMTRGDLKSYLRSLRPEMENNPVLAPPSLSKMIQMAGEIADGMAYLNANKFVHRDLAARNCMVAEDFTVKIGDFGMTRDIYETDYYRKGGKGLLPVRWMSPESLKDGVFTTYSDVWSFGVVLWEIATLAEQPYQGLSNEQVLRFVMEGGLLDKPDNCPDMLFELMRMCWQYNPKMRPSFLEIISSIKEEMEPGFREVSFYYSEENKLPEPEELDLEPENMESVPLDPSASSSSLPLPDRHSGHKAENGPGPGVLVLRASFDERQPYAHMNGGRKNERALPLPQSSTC
pIC50: −log10 of the molar value.
Measured pIC50 values are reported for all entries that follow.

# compound, subject-of-test, pIC50
records = [
    ("Clc1ccc2ncc(Nc3ccnc(Nc4ccc5c(c4)OCCO5)n3)cc2c1 [Compound 170]", "IGF-1R (Homo sapiens (Human), UniProt P08069)", "5.70 to 6.30"),
    ("COc1cc(Nc2nccc(Nc3cc4cccc(F)c4[nH]c3=O)n2)ccc1C1CCOCC1 [Compound 219]", "IGF-1R (Homo sapiens (Human), UniProt P08069)", "< 5.00"),
    ("CN(C)CC(=O)N1CCc2cc(Nc3nccc(Nc4cnc5cc(F)c(F)cc5c4)n3)cnc21 [Compound 498]", "IGF-1R (Homo sapiens (Human), UniProt P08069)", "5.70 to 6.30"),
    ("COc1cc(Nc2nccc(Nc3cnc4ccccc4c3)n2)ccc1N1CCN(C)CC1 [Compound 94]", "IGF-1R (Homo sapiens (Human), UniProt P08069)", "≥ 6.30"),
    ("COc1cc(N2CCNC3(CC3)C2)ncc1Nc1nccc(Nc2cnc3ccc(Cl)cc3c2)n1 [Compound 496]", "IGF-1R (Homo sapiens (Human), UniProt P08069)", "5.70 to 6.30"),
    ("COc1cc(N2CCNC(C(F)F)C2)ncc1Nc1nccc(Nc2cc3cccc(F)c3[nH]c2=O)n1 (centres unmarked) [Compound 218]", "IGF-1R (Homo sapiens (Human), UniProt P08069)", "5.70 to 6.30"),
    ("COc1cc(Nc2nccc(Nc3cnc4c(c3)CCC3(CCC3)C4)n2)ccc1O[C@H]1C[C@H](N(C)C)C1 [Compound 77]", "IGF-1R (Homo sapiens (Human), UniProt P08069)", "≥ 6.30"),
    ("COc1cc(Nc2nccc(Nc3cnc4ccccc4c3)n2)ccc1N1CCC(N2CCOCC2)CC1 [Compound 3]", "IGF-1R (Homo sapiens (Human), UniProt P08069)", "≥ 6.30"),
]

----------
subject-of-test: IGF-1R (Homo sapiens (Human))
assay-details: Example B-1: IGF-1R Assay (PC3 cells, IGF1 stimulation, AlphaLISA)
Format: cell-based
measurement-conditions: 200 ng/mL IGF1 stimulation, read-out: Biological Activity against IGF-1R IC50
Sequence (P08069 31-1367): as the sequence (P08069 31-1367, species assumed) above
pIC50: −log10 of the molar value.

# molecule, pIC50
measured = [
    ("COc1cc(Nc2nccc(Nc3cc(C)c4ccccc4c3)n2)ccc1OCCCN1CCCCC1", "≥ 6.30"),
    ("CN(C)CC(=O)N1CCc2cc(Nc3nccc(Nc4cnc5cc(F)c(F)cc5c4)n3)cnc21", "5.70 to 6.30"),
    ("COc1cc(Nc2nccc(Nc3cnc4ncc(Cl)cc4c3)n2)ccc1O[C@H]1C[C@@H](N(C)C)C1", "≥ 6.30"),
    ("COc1cc(Nc2nccc(Nc3cnc4c(c3)C3CCC4C3)n2)ccc1O[C@H]1C[C@@H](N(C)C)C1 (stereo partly shown)", "≥ 6.30"),
    ("COc1cc(Nc2nccc(Nc3cc4ccccc4nc3C(N)=O)n2)cnc1O[C@H]1C[C@@H](N(C)C)C1", "≥ 6.30"),
    ("COc1cc(N2CCN(C3COC3)CC2)ncc1Nc1nccc(Nc2cnc3ccc(Cl)cc3c2)n1", "≥ 6.30"),
    ("COc1cc(N2CCC(C)(O)CC2)ncc1Nc1nccc(Nc2cnc3cc(F)c(F)cc3c2)n1", "≥ 6.30"),
    ("COc1cc(Nc2nccc(Nc3cc4cccc(F)c4[nH]c3=O)n2)cnc1C1CCNCC1", "≥ 6.30"),
    ("CN(C)[C@H]1C[C@@H](Oc2ccc(Nc3nccc(Nc4cnc5c(c4)OCCO5)n3)cc2C#N)C1", "≥ 6.30"),
    ("COc1cc(Nc2nccc(Nc3cnc4c(c3)CCCC4(C)C)n2)ccc1OCCCN1CCCCC1", "≥ 6.30"),
    ("COc1cc(Nc2nccc(Nc3cnc4[nH]cc(C)c4c3)n2)ccc1O[C@H]1C[C@@H](N(C)C)C1", "≥ 6.30"),
    ("COc1cc(Nc2nccc(Nc3ccc4c(OC)cccc4c3)n2)ccc1OCCCN1CCCCC1", "≥ 6.30"),
    ("COc1nc(N2CCN(C)CC2)ccc1Nc1nccc(Nc2cnc3ccc(Cl)cc3c2)n1", "≥ 6.30"),
    ("CN(C)CC1CN(C)c2cc(Nc3nccc(Nc4cnc5cc(F)c(F)cc5c4)n3)ccc2O1 (stereo not shown)", "≥ 6.30"),
    ("COc1cc(Nc2nccc(Nc3cnc4c(c3)OCCO4)n2)ccc1OCCCN1CCOCC1", "≥ 6.30"),
    ("COc1cc(Nc2nccc(Nc3ccc4cccnc4c3)n2)ccc1OCCCN1CCCCC1", "5.70 to 6.30"),
]
